Target: D(2) dopamine receptor (Homo sapiens)
Sequence (P14416 whole entry): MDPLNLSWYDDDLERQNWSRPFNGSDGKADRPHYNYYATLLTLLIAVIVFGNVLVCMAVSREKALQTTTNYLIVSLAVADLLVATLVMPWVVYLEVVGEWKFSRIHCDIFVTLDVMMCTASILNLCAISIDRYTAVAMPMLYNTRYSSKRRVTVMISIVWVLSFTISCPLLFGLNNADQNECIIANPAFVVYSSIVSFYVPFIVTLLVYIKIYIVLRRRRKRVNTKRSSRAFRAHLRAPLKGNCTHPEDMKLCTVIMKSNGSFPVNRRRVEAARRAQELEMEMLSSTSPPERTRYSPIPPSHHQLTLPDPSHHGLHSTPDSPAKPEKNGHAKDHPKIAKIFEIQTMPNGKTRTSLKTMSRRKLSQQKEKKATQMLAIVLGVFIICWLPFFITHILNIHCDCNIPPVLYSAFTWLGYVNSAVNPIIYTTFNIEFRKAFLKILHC
Settings: HEK293, at 10 µM
Reported inhibition values for a set of compounds
// units = %; emit number, no label

COc1cc2c(cc1O)CCN1Cc3c(ccc(OC)c3O)C[C@H]21    8.16
COc1cc2c(cc1O)CCN1Cc3c(ccc(OC)c3OC)C[C@@H]21    63.2

Send back D(2) dopamine receptor (Homo sapiens) inhibition of COc1cc2c(cc1OC)[C@@H]1Cc3ccc(OC)c(O)c3CN1CC2 [TETRAHYDROPALMATRUBINE] only.
22.7

Send back D(2) dopamine receptor (Homo sapiens) inhibition of O=C(CCCN1CCC2(CC1)C(=O)NCN2c1ccccc1)c1ccc(F)cc1 only.
100

Send back D(2) dopamine receptor (Homo sapiens) inhibition of COc1cc2c(cc1OC)[C@H]1Cc3ccc(OC)c(OC)c3CN1CC2 only.
20.5

Send back D(2) dopamine receptor (Homo sapiens) inhibition of COc1cc2c(cc1O)[C@@H]1Cc3ccc(O)c(OC)c3CN1CC2 only.
97.5

Send back D(2) dopamine receptor (Homo sapiens) inhibition of COc1cc2c(cc1O)[C@@H]1Cc3cc4c(cc3CN1CC2)OCO4 only.
100

Send back D(2) dopamine receptor (Homo sapiens) inhibition of COc1cc2c(cc1O)[C@@H]1Cc3c(CO)c(OC)cc(OC)c3CN1CC2 only.
94.8

Send back D(2) dopamine receptor (Homo sapiens) inhibition of COc1ccc2c(c1)C[C@H]1c3cc(O)c(OC)cc3CCN1C2 only.
90
